standardised AUC by entry:
# System: SW872
# ASSAY_SUMMARY: standardised AUC of viability dose-response curve (72 h) (fraction (0-1)); higher = less growth inhibition (more resistant)
Write the number on its own, no unit after it.

Consider the reported standardised AUC for these molecules:
STRUCTURE_SMILES_STRING: C[C@@H](Oc1cc(-c2cnn(C3CCNCC3)c2)cnc1N)c1c(Cl)ccc(F)c1Cl
standardised AUC: 0.834
//
STRUCTURE_SMILES_STRING: C=CC(=O)Nc1cccc(Nc2nc(Nc3ccc(N4CCN(C(C)=O)CC4)cc3OC)ncc2C(F)(F)F)c1
standardised AUC: 0.912

response.value for NC(=O)c1cccc2cn(-c3ccc([C@@H]4CCCNC4)cc3)nc12 (field: standardised AUC) = 1

Entry Cc1cccc(-c2[nH]c(CNc3ccccc3F)nc2-c2ccc3ncnn3c2)n1 ; standardised AUC = 1

// field: standardised AUC; key: COc1cc2nccc(Oc3ccc(NC(=O)NC4CC4)c(Cl)c3)c2cc1C(N)=O ; value = 0.978

* * *

# Tested on: G401
# ASSAY_SUMMARY: relative viability vs DMSO control (72 h) (fraction); higher = more viable cells
# APPLIED_CONDITIONS: 0.00457 µM
Entries and their relative viability values follow.
No unit in the answer, please; the number alone is enough.

COMPOUND: Cc1cn(-c2cc(NC(=O)c3ccc(C)c(Nc4nccc(-c5cnccn5)n4)c3)cc(C(F)(F)F)c2)cn1 [Radotinib]
READOUT_TYPE: relative viability
RECORDED_MEASUREMENT: 1.1
--
COMPOUND: C[C@@H](Oc1cc(-c2cnn(C3CCNCC3)c2)cnc1N)c1c(Cl)ccc(F)c1Cl [Crizotinib]
READOUT_TYPE: relative viability
RECORDED_MEASUREMENT: 1.01
--
COMPOUND: CCCS(=O)(=O)N[C@H]1C[C@@H](N(C)c2ncnc3[nH]ccc23)C1 [Abrocitinib]
READOUT_TYPE: relative viability
RECORDED_MEASUREMENT: 1.04
--
COMPOUND: COc1cc2ncnc(Nc3ccc(F)c(Cl)c3)c2cc1NC(=O)/C=C/CN1CCCCC1 [Dacomitinib]
READOUT_TYPE: relative viability
RECORDED_MEASUREMENT: 1.03

Given item CNC(=O)c1cc(Oc2ccc(NC(=O)Nc3ccc(Cl)c(C(F)(F)F)c3)cc2)ccn1 [Sorafenib] , the value recorded as its relative viability is 1.01

Record summary for C=CC(=O)Nc1cc(Nc2nccc(-c3cn(C)c4ccccc34)n2)c(OC)cc1N(C)CCN(C)C [Osimertinib] : reported relative viability = 1.03

Per the records, this compound ( FC(F)(F)c1ccc(CNc2ccc(Cc3c[nH]c4ncc(Cl)cc34)cn2)cn1 [Pexidartinib] ) has relative viability equal to 1.05

response.value for CCN(CCCOc1ccc2c(Nc3cc(CC(=O)Nc4cccc(F)c4)[nH]n3)ncnc2c1)CCOP(=O)(O)O [Barasertib] (field: relative viability) = 0.97

Reported relative viability of CN1CCN(CCOc2cc(OC3CCOCC3)c3c(Nc4c(Cl)ccc5c4OCO5)ncnc3c2)CC1 [Saracatinib] : 1.04

Given item Cc1cc(Nc2ncc(Cl)c(Nc3ccccc3S(=O)(=O)C(C)C)n2)c(OC(C)C)cc1C1CCNCC1 [Ceritinib] , the value recorded as its relative viability is 0.974

// sample CO[C@@H]1[C@H](N(C)C(=O)c2ccccc2)C[C@H]2O[C@]1(C)n1c3ccccc3c3c4c(c5c6ccccc6n2c5c31)C(=O)NC4 [Midostaurin] , its relative viability was 0.969

Lab note: measured relative viability of COc1cc2nccc(Oc3ccc(NC(=O)NC4CC4)c(Cl)c3)c2cc1C(N)=O [Lenvatinib] was 0.982

Input N#Cc1ccnc(N2C(=O)CC[C@H]2C(=O)N(c2cncc(F)c2)[C@H](C(=O)NC2CC(F)(F)C2)c2ccccc2Cl)c1 [Ivosidenib] . Output relative viability: 1.01

The compound listed as CO[C@H]1C[C@@H]2CC[C@@H](C)[C@@](O)(O2)C(=O)C(=O)N2CCCC[C@H]2C(=O)O[C@H]([C@H](C)C[C@@H]2CC[C@@H](O)[C@H](OC)C2)CC(=O)[C@H](C)/C=C(\C)[C@@H](O)[C@@H](OC)C(=O)[C@H](C)C[C@H](C)/C=C/C=C/C=C/1C [Rapamycin] shows relative viability equal to 0.784

Record NC(=O)c1cnc2[nH]ccc2c1N[C@@H]1[C@@H]2CC3C[C@H]1C[C@@](O)(C3)C2 [Peficitinib] . Reported relative viability: 1.01
